FYI, the data here is from paper PMC8769072.

target: MDM2 SWIB (E3 ubiquitin-protein ligase MDM2, SWIB domain) (human) (UniProt Q00987); test: fluorescence polarisation; competition: unlabelled peptide in serial dilution against the protein domain (master mix at four times the KD) with its FITC-labelled probe peptide; 50 mM KPO4 or NaPO4 pH 7.5; Ki calculated from IC50
Sequence (Q00987 whole entry, the tested form may be a part): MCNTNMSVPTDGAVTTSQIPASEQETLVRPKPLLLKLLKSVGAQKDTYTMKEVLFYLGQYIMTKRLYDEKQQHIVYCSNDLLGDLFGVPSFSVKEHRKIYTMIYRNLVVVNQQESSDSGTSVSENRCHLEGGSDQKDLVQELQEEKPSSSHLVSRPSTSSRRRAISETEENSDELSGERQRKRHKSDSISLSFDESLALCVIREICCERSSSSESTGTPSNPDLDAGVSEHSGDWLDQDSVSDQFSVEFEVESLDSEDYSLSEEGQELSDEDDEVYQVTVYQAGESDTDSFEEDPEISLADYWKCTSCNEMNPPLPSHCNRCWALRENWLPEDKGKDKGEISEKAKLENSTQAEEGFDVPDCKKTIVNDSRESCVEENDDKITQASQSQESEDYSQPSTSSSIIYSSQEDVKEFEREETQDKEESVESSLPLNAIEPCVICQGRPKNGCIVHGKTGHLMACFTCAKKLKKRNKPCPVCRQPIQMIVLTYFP
Test Readout: Ki (nM)

> print(dat)
                                     binder  test.readout  measurement.units  observed.value
1  TPEDDRSFQTVWATVF [KIAA1671 600-615 peptide]            Ki                 nM            1760
